Test system: glycogen synthase kinase-3 (GSK3A per assay name; protocol says GSK3B)
ASSAY PROTOCOL: GSK3 binders on small-molecule microarrays, primary screen, biochemical, small-molecule microarray, 635 nm fluorescence, GSK3A (AID 1103); note: the record names both GSK3A and GSK3B
MEASUREMENT CONTEXT: small-molecule microarray binding, fluorescence 635 nm; higher = more signal
Lab note: compare composite z-score against 0.09. Equal or greater, write true (1). Smaller, write false (0).

Example cases with answers are listed next.
CC(C)C[C@@H]1NC(=O)[C@@H]2C[C@H](C(=O)NCCCCCN)[C@H](c3ccc(O)cc3)N2C1=O    true (1)
CN(C)C(=O)C1N=C(c2ccc(OCCCO)cc2)N(c2ccccc2)O1 (stereo not given)    true (1)
CC(=O)c1ccc(C(O)C2C=CC3C(=O)N(c4ccccc4)C(=O)C3N2Nc2ccc(C#N)cc2)cc1 (stereo not given)    true (1)
CC(C)(C)OC(=O)CC[C@]1(C(=O)NCc2ccccc2)N=C(c2ccc(OCCCO)cc2)O[C@H]1c1ccccc1CN=[N+]=[N-]    true (1)
CC(C)(C)N1CC=CC23O[C@@H]4C=CCOC(=O)[C@@H]4[C@H]2C(=O)N(CCCCCCO)[C@@H]3C1=O (stereo not given in full)    false (0)
CC(CO)N1C(=O)[C@@H]2[C@H]3C(=O)OCC=C[C@H]3OC23C=CCN(CCN2CCOCC2)C(=O)[C@@H]13 (stereo not given in full)    true (1)

Task: hey, is composite z-score for this one >= 0.09? `CCOC(=O)C[C@H]1[C@H](OC(=O)Cc2ccc3c(c2)OCO3)[C@@H](NC(=O)CC(C)C)c2cc(OCCCO)ccc2N1C(=O)Cc1ccc(OC)cc1`
Output: false (0)

Task: Decide: is the reported value of composite z-score for N#Cc1ccc(NN2C(C(O)c3ccc(F)cc3)C=CC3C(=O)N(c4ccccc4)C(=O)C32)cc1 (stereo not given) equal to or greater than 0.09?
Output: false (0)

Task: Check this compound for composite z-score at or above 0.09: CC(C)C(CO)N1C(=O)[C@@H]2C3C(=O)OCCC/C=C\[C@H]3OC23C=CCN(C(C)(C)C)C(=O)[C@@H]13 (stereo not given in full)
Output: false (0)

Task: Textbook exercise: given the entry `CO[C@]12C=C(Br)[C@@H](C[C@@H]1c1cccc(C)c1)[C@@]1(CO1)C2=O` , state whether its composite z-score is greater than or equal to 0.09.
Output: false (0)
